Tested on: S. aureus (MRSA) USA300
experiment-summary: microbe, parasite or virus in culture
Format: cell-based, Staphylococcus aureus
measurement-setup: S. aureus (MRSA) USA300 (R); shown in µM
Where a SMILES comes first, the peptide text is derived from it.
measured-attribute: Modal MIC

- compound: "CC[C@H](C)[C@H](N)C(=O)N[C@@H](CCCNC(=N)N)C(=O)NCC(=O)N[C@@H](Cc1ccc(O)cc1)C(=O)N[C@@H](CCCCN)C(=O)NCC(=O)NCC(=O)N[C@@H](Cc1ccc(O)cc1)C(=O)N[C@@H](CS)C(=O)N[C@@H](CCCCN)C(N)=O [Os(3-12)a] (H-IRGYKGGYCK-NH2)"
  experimental-result: "> 112 µM"
